# TESTED TARGET: UniProtKB P08908
# Sequence (P08908 whole entry): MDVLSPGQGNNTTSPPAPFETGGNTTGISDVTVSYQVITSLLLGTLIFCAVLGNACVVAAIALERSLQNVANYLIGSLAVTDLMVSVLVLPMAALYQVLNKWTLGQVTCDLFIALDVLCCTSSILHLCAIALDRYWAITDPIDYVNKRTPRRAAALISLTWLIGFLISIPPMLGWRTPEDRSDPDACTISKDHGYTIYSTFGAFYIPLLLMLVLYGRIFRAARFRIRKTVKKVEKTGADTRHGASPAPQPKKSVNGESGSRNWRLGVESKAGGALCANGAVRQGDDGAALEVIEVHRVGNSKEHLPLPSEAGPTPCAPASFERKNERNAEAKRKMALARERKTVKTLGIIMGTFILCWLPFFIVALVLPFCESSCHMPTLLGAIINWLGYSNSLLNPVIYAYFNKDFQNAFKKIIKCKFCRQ
Entries and their measured log10 of Ki follow.
Each number you see is log10 of Ki, and the unit inside the log is nM.

Before answering, review these 2 worked examples.
CCCN1CCc2cccc3c2[C@H]1Cc1cccc(N)c1-3 :: 2.44
CCCN1CCc2cccc3c2[C@H]1Cc1cccc(OC(=O)NCC)c1-3 :: 1.97

log10 of Ki reading for CCCC(=O)Nc1cccc2c1-c1cccc3c1[C@@H](C2)N(CCC)CC3 : 2.58

Sure, the documented log10 of Ki for CCCN1CCc2cccc3c2[C@H]1Cc1cccc(OC(=O)NC(C)(C)C)c1-3 is 1.98

Form field log10 of Ki, entry CCCCNC(=O)Oc1cccc2c1-c1cccc3c1C(C2)N(CCC)CC3 (racemic) : 2.59

The molecule listed as CCCN1CCc2cccc3c2[C@H]1Cc1cccc(OC(=O)NCc2ccccc2)c1-3 shows log10 of Ki equal to 1.95

// field: log10 of Ki; key: CCCC(=O)Oc1cccc2c1-c1cccc3c1[C@@H](C2)N(CCC)CC3 ; value = 1.08

Value of log10 of Ki reported for the molecule CCCN1CCc2cccc3c2C1Cc1cccc(O)c1-3 (racemic) is 1.82

###

# TESTED TARGET: D(1A) dopamine receptor (Homo sapiens, UniProt P21728)
# Sequence (P21728 whole entry): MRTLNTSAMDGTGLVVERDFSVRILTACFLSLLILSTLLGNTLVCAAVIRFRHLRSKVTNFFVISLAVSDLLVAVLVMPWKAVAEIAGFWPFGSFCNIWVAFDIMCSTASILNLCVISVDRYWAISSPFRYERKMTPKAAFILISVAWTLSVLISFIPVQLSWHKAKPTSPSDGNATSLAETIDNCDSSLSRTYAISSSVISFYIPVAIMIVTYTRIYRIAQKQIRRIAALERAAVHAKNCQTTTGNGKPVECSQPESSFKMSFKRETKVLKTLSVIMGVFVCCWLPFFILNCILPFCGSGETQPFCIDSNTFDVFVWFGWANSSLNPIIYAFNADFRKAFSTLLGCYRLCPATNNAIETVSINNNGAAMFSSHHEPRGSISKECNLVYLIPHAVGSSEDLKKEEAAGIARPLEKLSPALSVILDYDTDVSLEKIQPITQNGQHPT
# TEST DESCRIPTION: Displacement of [3H]SCH23390 from dopamine D1 receptor expressed in HEK293 cells at 10 uM after 50 mins by beta liquid scintillation counter
# Assay type: cell-based
Returns 1 if the recorded inhibition is greater than or equal to 50%, and -1 otherwise.

Answered examples (5):
CCCN1CCc2cccc3c2[C@H]1Cc1cccc(OC(=O)NCC)c1-3 :: 1
CCCN1CCc2cccc3c2C1Cc1cccc(O)c1-3 (racemic) :: 1
CCCCNC(=O)Oc1cccc2c1-c1cccc3c1[C@@H](C2)N(CCC)CC3 :: 1
CCCN1CCc2cccc3c2C1Cc1cccc(OC(=O)CCCCC2CCSS2)c1-3 (racemic) :: 1
CCCN1CCc2cccc3c2[C@H]1Cc1cccc(OC(=O)CCCC[C@@H]2CCSS2)c1-3 :: 1

Can CCCN1CCc2cccc3c2C1Cc1cccc(OC(=O)NCC)c1-3 (racemic) be said to have inhibition at or above 50%?
-1

For this molecule, is measured inhibition 50% or higher? CCCN1CCc2cccc3c2C1Cc1cccc(OC(=O)Nc2cccc4ccccc24)c1-3 (stereo not given)
-1

Would you say CCCN1CCc2cccc3c2[C@H]1Cc1cccc(O)c1-3 shows inhibition at minimum 50%?
1

Given the entry CCCCNC(=O)Oc1cccc2c1-c1cccc3c1C(C2)N(CCC)CC3 (racemic) , answer whether its inhibition meets or surpasses 50%.
-1

Dear colleague, could you confirm whether CCCC(=O)Nc1cccc2c1-c1cccc3c1[C@@H](C2)N(CCC)CC3 has inhibition at or above 50%?
-1

Determine whether this molecule has inhibition no lower than 50%: CCCN1CCc2cccc3c2C1Cc1cccc(OC(=O)NC(C)(C)C)c1-3 (racemic)
-1

Reported inhibition at or above 50%? CCCN1CCc2cccc3c2[C@H]1Cc1cccc(OC(=O)NC(C)(C)C)c1-3
1

Threshold query (inhibition >= 50%) on CCCC(=O)Oc1cccc2c1-c1cccc3c1[C@@H](C2)N(CCC)CC3
1

Where do the numbers come from? From ChEMBL document CHEMBL1806354.
